System: BT-549 breast
Experiment: NCI tumour cell line growth inhibition, 48 h
Measurement Name: TGI (µM)
Express it in µM; write the number only.

Molecule: COc1ccc(C/C(C)=C(\c2ccc(OCCN3CCOCC3)cc2)c2ccc(OC(=O)Cc3ccccc3)cc2)cc1
Value Unit: µM
Measured: 0.996

Find TGI (BT-549 breast) for the entry "Cc1ccc(/C=C2/SC(Nc3nc(-c4nc(NC5=NC(=O)/C(=C\c6ccc(C)cc6)S5)sc4C)c(C)s3)=NC2=O)cc1"
31.9

Find TGI (BT-549 breast) for the entry "CCN1CN(c2ccccc2)C2(CCN(CCCSc3ccc(F)cc3)CC2)C1=O"
21.4

Find TGI (BT-549 breast) for the entry O=C1/C(=C/c2ccc3c(c2)OCO3)CCC1CN1CCOCC1 (centres undefined)
42.1

Find TGI (BT-549 breast) for the entry "Cc1nc2cnc3cc(F)c(-c4ccc(Oc5ncccn5)cc4Cl)cc3c2n1[C@H]1CCN(C(=O)CO)C[C@@H]1F"
23.1

----------
Measured GI50, listed per entry for reference.
System: SF-268 CNS
Assay: NCI tumour cell line growth inhibition, 48 h

# example entries with known answers
Compound: C[C@H]1[C@H](C)CC[C@]2(C(=O)N3CCN(C)CC3)CC[C@]3(C)C(=CC[C@@H]4[C@@]5(C)C/C(=C/c6cccnc6)C(=O)C(C)(C)[C@@H]5CC[C@]43C)[C@H]12
GI50: 1.47 µM

Compound: COc1ccc(-c2nnc(SCC(=O)Nc3ccc(/C(C)=N\O)cc3)n2-c2ccccc2)cc1OC
GI50: 3.07 µM

Compound: O=C(/C=C/c1cccs1)c1ccc(Nc2nc(Nc3ccc(F)cc3)nc(Nc3ccc(F)cc3)n2)cc1
GI50: 30.2 µM

Compound: CCc1cccc2c3c(sc12)C(c1ccc(Cl)cc1)C(C#N)=C(N)O3 (stereo not drawn)
GI50: 0.933 µM

Compound: COc1ccc(C(=O)COc2cccc(/C=C3\CSc4ccccc4C3=O)c2)cc1
GI50: 2.47 µM

Report GI50 for "N#Cc1c(N)nc(N2CCOCC2)c(C#N)c1-c1ccc(Cl)cc1" please.
61.7 µM

Report GI50 for "CN(C)c1ccc(-c2cc(-c3ccc(Nc4nc(Nc5ccccc5)nc(Nc5ccc(Cl)cc5)n4)cc3)nc(N)n2)cc1" please.
6.69 µM

Report GI50 for "CN1CCN(c2nc(NCCCCNc3ccnc4cc(Cl)ccc34)c3ccccc3n2)CC1" please.
10.7 µM

----------
Test system: OVCAR-8 ovarian
Assay: NCI tumour cell line growth inhibition, 48 h
Measurement Name: TGI

Compound: CN(CC(=O)O)c1ccc(/C=C/c2ccnc3ccccc23)cc1
Study System: OVCAR-8 ovarian
TGI: > 100 µM

Report TGI for "Cc1cc(C)nc(NC(=S)Nc2ccccc2Cl)c1" please.
> 100 µM

Report TGI for "Cc1cc(NC(=O)NC(=O)c2ccccc2N)ccc1Oc1ncc(Br)cn1" please.
> 46.1 µM

Report TGI for CC1CC2C(=O)N(c3ccccc3)C(=O)C2c2c1c1ccccc1n2Cc1ccccc1 (stereo not given) please.
> 100 µM

Report TGI for "COc1ccc2cc1Oc1ccc(cc1)C[C@@H]1c3cc(c(OC)cc3CCN1C)Oc1c(OC)c(OC)cc3c1[C@@H](C2)N(C)CC3" please.
28.2 µM

----------
Tested on: EKVX NSCLC
Experiment: NCI tumour cell line growth inhibition, 48 h; in the data active = GI50 below about 0.43 µM; inactive = the rest
Return exactly one item of true (1) = active, false (0) = inactive

Write down the call the test reported for this compound. Item: "O=C1c2ccc3c4c5ccc(c24)C(=O)N1CCCOCCCCOCCCNCc1ccc(cc1)CNCCCOCCCCOCCCN(C3=O)C5=O"
false (0)

Write down the call the test reported for this compound. Item: O=C1CC(c2ccc3c(c2)OCO3)Nc2cc3c(cc21)OCO3 (stereo unspecified)
false (0)

Write down the call the test reported for this compound. Item: "O=C1C=C[C@@]23C[C@@H](Nc4c(O)c5c6c(c42)=NCCC=6C=N5)SC3=C1"
false (0)

Write down the call the test reported for this compound. Item: COC(C(=O)C(O)C(C)O)C1Cc2cc3cc(OC4CC(OC(C)=O)C(OC5CC(O)C(OC)C(C)O5)C(C)O4)cc(O)c3c(O)c2C(=O)C1OC1CC(OC2CC(OC3CC(C)(O)C(OC(=O)C(C)C)C(C)O3)C(O)C(C)O2)C(O)C(C)O1 (stereo unspecified)
true (1)

Write down the call the test reported for this compound. Item: "N#Cc1cccc(C(=O)Nc2cccc(NC(=O)c3cccc(C#N)c3)c2)c1"
false (0)

Write down the call the test reported for this compound. Item: "COC(=O)c1cc(-c2cc(OC)c(OC)c(OC)c2)[nH]c1N/N=C/c1c(Cl)cccc1Cl"
false (0)

Write down the call the test reported for this compound. Item: "COc1ccc(C(=O)/C=C/c2c(C(F)(F)F)nc3sccn23)cc1OC"
false (0)

Write down the call the test reported for this compound. Item: "N=c1c2c(-c3ccccc3)c(-c3ccccc3)n(Cc3ccccc3)c2ncn1CCCO"
false (0)

Write down the call the test reported for this compound. Item: "CN(C)c1ccc(-c2cc(-c3ccc(Nc4nc(Nc5ccccc5)nc(Nc5ccc(Cl)cc5)n4)cc3)nc(N)n2)cc1"
false (0)

Write down the call the test reported for this compound. Item: "C=CCNCCCN1C(=O)c2ccc3c4c(ccc(c24)C1=O)C(=O)N(CCCNCC=C)C3=O"
true (1)

Write down the call the test reported for this compound. Item: "[C-]#[O+].[C-]#[O+].[C-]#[O+].[C-]#[O+].[Ir].[Ir].[O-]c1ccc2ccccc2c1C=Nc1ccc(N=Cc2c([O-])ccc3ccccc23)cc1"
false (0)

Write down the call the test reported for this compound. Item: "Cn1ccnc1C(=O)/C=C/c1ccc(CC(=O)Nc2ccc(S(F)(F)(F)(F)F)cc2)cc1"
false (0)

Write down the call the test reported for this compound. Item: "Cc1nc2sc(C(=O)Nc3cccc4ccccc34)c(N)c2cc1C(=O)/C=C/c1ccccc1"
false (0)

Write down the call the test reported for this compound. Item: "CN(c1ccc(NC(=O)Nc2ccc(OC(F)(F)F)cc2)cc1)c1ccnc(Nc2cccc(S(N)(=O)=O)c2)n1"
false (0)

Write down the call the test reported for this compound. Item: "CCN1CCN(CC(=O)Nc2nc3ccc(NCc4ccc(Cl)cc4)cc3s2)CC1"
false (0)

Write down the call the test reported for this compound. Item: "CCCCCCC#Cc1ccccc1C#CCO"
false (0)

----------
Test system: OVCAR-5 ovarian
Assay: NCI tumour cell line growth inhibition, 48 h
Measured TGI, listed per entry for reference.

# example entries with known answers
Molecule: COc1ccc(N=Nc2ccc3oc(=O)c(C(=O)Nc4ccccc4)cc3c2)cc1
TGI: > 10 µM
--
Molecule: CCOC(=O)c1cc(C2CCN(CC(C)CC)C2=S)c(-c2cc(C)no2)[nH]1 (stereo unspecified)
TGI: > 100 µM
--
Molecule: CCOC(=O)C1=C(NNC(=O)Cc2ccccc2)CSC1=Nc1ccccc1
TGI: > 100 µM

Find TGI (OVCAR-5 ovarian) for the entry "O=C1c2cc3c(cc2CC12Cc1cc4c(cc1C2=O)CCC4)CCC3"
> 100 µM

Find TGI (OVCAR-5 ovarian) for the entry "N#Cc1c(-c2ccc(Cl)cc2)c(C#N)c(=O)n(NS(=O)(=O)c2ccccc2)c1S"
> 100 µM

Find TGI (OVCAR-5 ovarian) for the entry COC(=O)C1C2C=CC(C2)C1(C(=O)OC)S(=O)CC12CCC(CC1O)C2(C)C (stereo unspecified)
> 100 µM

----------
Measured TGI, listed per entry for reference.
System: HCT-116 colon
Assay: NCI tumour cell line growth inhibition, 48 h
Express it in µM; write the number only.

Compound: COc1cc(NCc2ccc3nc(-c4ccccc4)c(N)nc3c2)cc(OC)c1OC
Measurement Name: TGI
Measured: 33.7

Next item in the queue.
Find TGI (HCT-116 colon) for the entry CC(C)(C)[Si](C)(C)OCC1OC(n2ccc(=O)[nH]c2=O)C(O[Si](C)(C)C(C)(C)C)[C@@]12O[C@H]2C(N)=O (stereo not given in full)
22.1

----------
Test system: K-562 leukemia
Assay: NCI tumour cell line growth inhibition, 48 h
Measurement Name: TGI

Compound: CCN(CC)c1ccc(C2SCC(=O)N2c2ccc(NC(=O)c3ccc(N4C(=O)CSC4c4ccc(N(CC)CC)cc4)cc3)cc2)cc1 (centres undefined)
TGI: > 100 µM

Compound: C=C1CC2(C[C@@H](c3ccccc3)O[C@@H](c3ccccc3)C2)OC1=O (some centres undefined)
TGI: 7.51 µM

Report TGI for "COc1ccc2cc1Oc1ccc(cc1)C[C@@H]1c3cc(c(OC)cc3CCN1C)Oc1c(OC)c(OC)cc3c1[C@@H](C2)N(C)CC3" please.
9.77 µM

Report TGI for "Cc1cc(NC(=O)NC(=O)c2ccccc2N)ccc1Oc1ncc(Br)cn1" please.
> 100 µM

Report TGI for COc1ccc(C2=NN(C(=O)COc3ccc(Cl)cc3)C(O)(c3ccc(Cl)cc3)C2)cc1 (centres undefined) please.
> 100 µM

Report TGI for "N#C/C(=C1\NN=C(N)C(c2ccc(Cl)cc2)=C1O)c1ccc(Cl)cc1" please.
> 100 µM

Report TGI for "C=CC(=O)N1CCN(c2nc(OC[C@@H]3CCCN3C)nc3c2CCN(c2cccc4cccc(C)c24)C3)C[C@@H]1CC#N" please.
4.28 µM

Report TGI for "CN(C)CCNC(=O)c1ccc(C(=O)NCCN(C)C)c2nc3ccccc3cc12" please.
> 30 µM

Report TGI for "N#Cc1cccc(C(=O)Nc2cccc(NC(=O)c3cccc(C#N)c3)c2)c1" please.
> 100 µM
